- Test system: Plenodomus lingam
- PROCEDURE TEXT: Inhibition of Leptosphaeria maculans brassinin oxidase assessed as relative protein at 0.50 mM relative to control
QUANTITY KIND: Ratio

As a guide, the following entries are already answered.
Query: What measured Ratio goes with c1ccc2c(-c3nccs3)c[nH]c2c1 ?
Response: 0.1

Query: What measured Ratio goes with COc1ccc2[nH]cc(-c3nccs3)c2c1 ?
Response: 0.13

Query: What measured Ratio goes with Fc1ccc2[nH]cc(-c3nccs3)c2c1 ?
Response: 0.19

Query: What measured Ratio goes with c1ccc2[nH]c(-c3cscn3)nc2c1 ?
Response: 0.06

Query: What measured Ratio goes with COc1ccc2c(-c3nccs3)c[nH]c2c1 ?
Response: 0.11

Query: What measured Ratio goes with Fc1ccc2c(-c3nccs3)c[nH]c2c1 ?
Response: 0.24

a: c1ccc(-c2c[nH]c3ccccc23)cc1
b: c1ccc2cc(-c3cnsc3)ccc2c1
Query: Decide: a or b , by lowest recorded Ratio. Please indicate the selected item by its label.
Response: a

These entries and their values trace back to ChEMBL document CHEMBL3045632.
